Target: NR2F6 LBD (Homo sapiens)
Construct: expressed in transfected cells
Sequence (P10588 165-393 limits assumed): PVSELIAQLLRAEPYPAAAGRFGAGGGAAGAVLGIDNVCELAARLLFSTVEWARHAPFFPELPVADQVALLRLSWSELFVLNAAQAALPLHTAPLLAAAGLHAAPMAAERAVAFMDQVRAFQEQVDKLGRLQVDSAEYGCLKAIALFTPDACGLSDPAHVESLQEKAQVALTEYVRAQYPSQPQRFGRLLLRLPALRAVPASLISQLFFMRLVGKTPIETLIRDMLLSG
Assay: NR2F6 LBD transient transfection
Format: cell-based
Details: 2 uM
readoutType: Firefly LBD, cmpd/DMSO (mean)

compound: O=S1(=O)C[C@H](NCc2ccco2)[C@@H](S(=O)(=O)c2cccs2)C1
targetOrSystem: NR2F6 LBD (Homo sapiens)
observed: 1.7
//
compound: O=S1(=O)C[C@H](NCC2CCCO2)[C@@H](S(=O)(=O)c2cccs2)C1 (stereo partly shown)
targetOrSystem: NR2F6 LBD (Homo sapiens)
observed: 1.5
//
compound: COCCN[C@H]1CS(=O)(=O)C[C@@H]1S(=O)(=O)c1ccc(Cl)cc1
targetOrSystem: NR2F6 LBD (Homo sapiens)
observed: 1.5
//
compound: O=S1(=O)C[C@H](N2CCCC2)[C@@H](S(=O)(=O)c2cccs2)C1
targetOrSystem: NR2F6 LBD (Homo sapiens)
observed: 2.9
//
compound: CC(C)OCCCN[C@H]1CS(=O)(=O)C[C@@H]1S(=O)(=O)c1ccc(Cl)cc1
targetOrSystem: NR2F6 LBD (Homo sapiens)
observed: 1.8
//
compound: O=S1(=O)C[C@H](NCCCc2ccccc2)[C@@H](S(=O)(=O)c2ccc(Cl)cc2)C1
targetOrSystem: NR2F6 LBD (Homo sapiens)
observed: 2.0
//
compound: CC(C)CCN[C@H]1CS(=O)(=O)C[C@@H]1S(=O)(=O)c1ccc(Cl)cc1
targetOrSystem: NR2F6 LBD (Homo sapiens)
observed: 1.7

---

Biological target: NR2F6 (Homo sapiens, UniProt P10588)
Construct: expressed in transfected cells; also transient transfection
Assay: NR2F6 agonist screening, Firefly signal cmpd/DMSO
Type: cell-based
Details: 0.5 uM
readoutType: Firefly F4, cmpd/DMSO (mean)

compound: CC(C)CCN[C@H]1CS(=O)(=O)C[C@@H]1S(=O)(=O)c1ccc(Cl)cc1 [Compound D131]
targetOrSystem: NR2F6 (Homo sapiens, UniProt P10588)
observed: 1.3
//
compound: COCCN[C@H]1CS(=O)(=O)C[C@@H]1S(=O)(=O)c1ccc(Cl)cc1 [Compound D136]
targetOrSystem: NR2F6 (Homo sapiens, UniProt P10588)
observed: 1.5
//
compound: CC(C)OCCCN[C@H]1CS(=O)(=O)C[C@@H]1S(=O)(=O)c1ccc(Cl)cc1 [Compound D138]
targetOrSystem: NR2F6 (Homo sapiens, UniProt P10588)
observed: 1.0
//
compound: O=S1(=O)C[C@H](NCC2CCCO2)[C@@H](S(=O)(=O)c2cccs2)C1 (stereo partly shown) [Compound D134]
targetOrSystem: NR2F6 (Homo sapiens, UniProt P10588)
observed: 1.5
//
compound: O=S1(=O)C[C@H](N2CCCC2)[C@@H](S(=O)(=O)c2cccs2)C1 [Compound D104]
targetOrSystem: NR2F6 (Homo sapiens, UniProt P10588)
observed: 2.1
//
compound: O=S1(=O)C[C@H](NCCCc2ccccc2)[C@@H](S(=O)(=O)c2ccc(Cl)cc2)C1 [Compound D137]
targetOrSystem: NR2F6 (Homo sapiens, UniProt P10588)
observed: 1.1
//
compound: O=S1(=O)C[C@H](NCc2ccco2)[C@@H](S(=O)(=O)c2cccs2)C1 [Compound D135]
targetOrSystem: NR2F6 (Homo sapiens, UniProt P10588)
observed: 1.7

---

Target: NR2F6 (Homo sapiens, UniProt P10588)
Construct: expressed in transfected cells; also transient transfection
Experiment: NR2F6 agonist screening, Firefly signal cmpd/DMSO
Format: cell-based
Conditions: 10% FBS; 10 uM
F4, Firefly/Renilla for S/B(F4) > 3 values for the molecules below.
readoutType: F4, Firefly/Renilla for S/B(F4) > 3

molecule: CC(C)OCCCN[C@H]1CS(=O)(=O)C[C@@H]1S(=O)(=O)c1ccc(Cl)cc1
targetOrSystem: NR2F6 (Homo sapiens, UniProt P10588)
readoutType: F4, Firefly/Renilla for S/B(F4) > 3
observed: 1.6
--
molecule: C[C@@H]1C[C@H](C)CN([C@H]2CS(=O)(=O)C[C@@H]2S(=O)(=O)c2cccs2)C1
targetOrSystem: NR2F6 (Homo sapiens, UniProt P10588)
readoutType: F4, Firefly/Renilla for S/B(F4) > 3
observed: 3.3
--
molecule: O=S1(=O)C[C@H](N2CCCCC2)[C@@H](S(=O)(=O)c2cccs2)C1
targetOrSystem: NR2F6 (Homo sapiens, UniProt P10588)
readoutType: F4, Firefly/Renilla for S/B(F4) > 3
observed: 4.3
--
molecule: O=S1(=O)C[C@H](NCCCc2ccccc2)[C@@H](S(=O)(=O)c2ccc(Cl)cc2)C1
targetOrSystem: NR2F6 (Homo sapiens, UniProt P10588)
readoutType: F4, Firefly/Renilla for S/B(F4) > 3
observed: 2.2
--
molecule: O=S1(=O)C[C@H](NC2CCCCCC2)[C@@H](S(=O)(=O)c2ccc(Cl)cc2)C1
targetOrSystem: NR2F6 (Homo sapiens, UniProt P10588)
readoutType: F4, Firefly/Renilla for S/B(F4) > 3
observed: 2.7
--
molecule: CCCCN[C@H]1CS(=O)(=O)C[C@@H]1S(=O)(=O)c1ccc(Cl)cc1
targetOrSystem: NR2F6 (Homo sapiens, UniProt P10588)
readoutType: F4, Firefly/Renilla for S/B(F4) > 3
observed: 2.7
--
molecule: Cc1cccc(CN[C@H]2CS(=O)(=O)C[C@@H]2S(=O)(=O)c2ccc(Cl)cc2)c1
targetOrSystem: NR2F6 (Homo sapiens, UniProt P10588)
readoutType: F4, Firefly/Renilla for S/B(F4) > 3
observed: 3.2
--
molecule: CC1CCN([C@H]2CS(=O)(=O)C[C@@H]2S(=O)(=O)c2cccs2)CC1
targetOrSystem: NR2F6 (Homo sapiens, UniProt P10588)
readoutType: F4, Firefly/Renilla for S/B(F4) > 3
observed: 3.6
--
molecule: O=S1(=O)C[C@H](N2CCCCC2)[C@@H](S(=O)(=O)c2ccc(Cl)cc2)C1
targetOrSystem: NR2F6 (Homo sapiens, UniProt P10588)
readoutType: F4, Firefly/Renilla for S/B(F4) > 3
observed: 4.0
--
molecule: O=S1(=O)C[C@H](N2CCCC2)[C@@H](S(=O)(=O)c2ccc(Cl)cc2)C1
targetOrSystem: NR2F6 (Homo sapiens, UniProt P10588)
readoutType: F4, Firefly/Renilla for S/B(F4) > 3
observed: 3.9
--
molecule: CCCCN(C)[C@H]1CS(=O)(=O)C[C@@H]1S(=O)(=O)c1ccc(Cl)cc1
targetOrSystem: NR2F6 (Homo sapiens, UniProt P10588)
readoutType: F4, Firefly/Renilla for S/B(F4) > 3
observed: 2.0
--
molecule: CC(C)CCN[C@H]1CS(=O)(=O)C[C@@H]1S(=O)(=O)c1ccc(Cl)cc1
targetOrSystem: NR2F6 (Homo sapiens, UniProt P10588)
readoutType: F4, Firefly/Renilla for S/B(F4) > 3
observed: 2.2
--
molecule: CC(C)N[C@H]1CS(=O)(=O)C[C@@H]1S(=O)(=O)c1ccc(Cl)cc1
targetOrSystem: NR2F6 (Homo sapiens, UniProt P10588)
readoutType: F4, Firefly/Renilla for S/B(F4) > 3
observed: 2.1
--
molecule: CCC(C)N[C@H]1CS(=O)(=O)C[C@@H]1S(=O)(=O)c1ccc(Cl)cc1 (stereo partly shown)
targetOrSystem: NR2F6 (Homo sapiens, UniProt P10588)
readoutType: F4, Firefly/Renilla for S/B(F4) > 3
observed: 2.4
--
molecule: CC(C)CN[C@H]1CS(=O)(=O)C[C@@H]1S(=O)(=O)c1ccc(Cl)cc1
targetOrSystem: NR2F6 (Homo sapiens, UniProt P10588)
readoutType: F4, Firefly/Renilla for S/B(F4) > 3
observed: 2.1
--
molecule: CCCN[C@H]1CS(=O)(=O)C[C@@H]1S(=O)(=O)c1ccc(Cl)cc1
targetOrSystem: NR2F6 (Homo sapiens, UniProt P10588)
readoutType: F4, Firefly/Renilla for S/B(F4) > 3
observed: 2.3

---

Target: ERα (Homo sapiens, UniProt P03372)
Construct: expressed in transfected cells
Sequence (P03372 whole entry, species assumed): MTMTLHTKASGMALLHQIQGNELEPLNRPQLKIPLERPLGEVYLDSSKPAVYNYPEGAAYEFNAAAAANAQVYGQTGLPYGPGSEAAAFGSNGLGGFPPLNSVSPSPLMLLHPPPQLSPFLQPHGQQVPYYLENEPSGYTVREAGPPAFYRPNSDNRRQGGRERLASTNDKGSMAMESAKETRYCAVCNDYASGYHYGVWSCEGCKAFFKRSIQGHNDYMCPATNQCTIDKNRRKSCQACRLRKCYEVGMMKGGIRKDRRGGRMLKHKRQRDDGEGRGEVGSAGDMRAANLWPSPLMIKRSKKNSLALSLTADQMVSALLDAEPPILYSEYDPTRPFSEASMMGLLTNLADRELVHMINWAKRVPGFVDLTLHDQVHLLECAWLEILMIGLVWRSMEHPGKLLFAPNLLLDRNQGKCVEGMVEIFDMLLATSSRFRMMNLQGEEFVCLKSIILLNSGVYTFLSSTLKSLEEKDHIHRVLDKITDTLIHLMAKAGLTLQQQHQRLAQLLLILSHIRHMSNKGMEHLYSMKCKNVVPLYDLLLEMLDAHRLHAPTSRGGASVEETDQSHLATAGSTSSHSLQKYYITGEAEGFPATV
Assay: Counterscreening, Firefly signal with ERα transient transfection (Firefly_ERa)
Format: cell-based
Conditions: 40 uM
readoutType: Firefly ERalpha transient, cmpd/DMSO (mean)

molecule: N#Cc1c(C(F)(F)F)nc2ccc(Oc3ccccc3)cc2c1NCCc1ccc(Cl)cc1
observed: 0.7

molecule: COc1ccc2nc(C(F)(F)F)c(C#N)c(N3CCN(C)CC3)c2c1
observed: 1.6

molecule: CCOC(=O)c1cnc2c(C)cc(C)cc2c1N1CCCC(N(C)C)C1 (centres unmarked)
observed: 0.5

molecule: Cc1ccc(CCCNc2c(C#N)c(C(F)(F)F)nc3ccc(Oc4ccccc4)cc23)cc1
observed: 1.1

molecule: COc1ccc(-c2cc3n(n2)C(N)=C(C#N)C(c2c[nH]c4ccccc24)(C(F)(F)F)N3)cc1OC (centres unmarked)
observed: 1.0

molecule: O=C(O)c1ccc(-n2ncc(Cl)c(Cl)c2=O)cc1
observed: 0.5

molecule: Cc1cc(C)c2ncc(C(=O)O)c(NCCCN(C)C)c2c1
observed: 1.3

molecule: COc1ccc2nc(C(F)(F)F)c(C#N)c(NCCc3ccc(Cl)cc3)c2c1
observed: 0.8

molecule: O=c1cccc2n1CCN(c1nc(NCC3CCCO3)nc(N3CCOCC3)n1)C2 (centres unmarked)
observed: 1.4

molecule: COc1ccc(-c2cc3n(n2)C(N)=C(C#N)C(c2cccn2C)(C(F)(F)F)N3)cc1OC (centres unmarked)
observed: 0.7

molecule: COc1nc(NCCC2=CCCCC2)nc(N2CC3CC(C2)c2cccc(=O)n2C3)n1 (centres unmarked)
observed: 0.5
